system: E31 (patient-derived glioblastoma stem cells of proneural subtype); assay: surviving fraction (nuclei count normalised to DMSO); higher = more cells surviving (less toxic); details: 3000 nM; exposure time: 72 h;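 also: nuclei counted by high-content imaging of Hoechst-stained cells in laminin-coated 384-well plates, relative to 0.1% DMSO vehicle wells, with staurosporine as cell-death control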
Where a name gives a salt, the structure may show the parent alone.
Tick 1 if surviving fraction is 0.2 or greater. Tick -1 if surviving fraction is less than 0.2.

{"compound": "NC(=O)c1ccccc1 [Benzamide]", "discrete.label": 1}
{"compound": "CC[C@@H]1C(=O)N(C)c2cnc(Nc3ccc(C(=O)N[C@H]4CC[C@H](N5CCN(CC6CC6)CC5)CC4)cc3OC)nc2N1C(C)C", "discrete.label": -1}
{"compound": "CNCCCC12CCC(c3ccccc31)c1ccccc12 [Maprotiline hydrochloride]", "discrete.label": 1}
{"compound": "COc1ccc([C@@H]2CC(=O)c3c(O)cc(O[C@@H]4O[C@H](CO[C@@H]5O[C@@H](C)[C@H](O)[C@@H](O)[C@H]5O)[C@@H](O)[C@H](O)[C@H]4O)cc3O2)cc1O", "discrete.label": 1}
{"compound": "COc1cccc2c1C(=O)c1c(O)c3c(c(O)c1C2=O)C[C@@](O)(C(C)=O)C[C@@H]3O[C@H]1C[C@H](N)[C@H](O)[C@H](C)O1 [Daunorubicin hydrochloride]", "discrete.label": -1}
